TEST_TARGET: CNGA1 (Homo sapiens, UniProt P29973+Q14028)
Sequence (P29973 141-686): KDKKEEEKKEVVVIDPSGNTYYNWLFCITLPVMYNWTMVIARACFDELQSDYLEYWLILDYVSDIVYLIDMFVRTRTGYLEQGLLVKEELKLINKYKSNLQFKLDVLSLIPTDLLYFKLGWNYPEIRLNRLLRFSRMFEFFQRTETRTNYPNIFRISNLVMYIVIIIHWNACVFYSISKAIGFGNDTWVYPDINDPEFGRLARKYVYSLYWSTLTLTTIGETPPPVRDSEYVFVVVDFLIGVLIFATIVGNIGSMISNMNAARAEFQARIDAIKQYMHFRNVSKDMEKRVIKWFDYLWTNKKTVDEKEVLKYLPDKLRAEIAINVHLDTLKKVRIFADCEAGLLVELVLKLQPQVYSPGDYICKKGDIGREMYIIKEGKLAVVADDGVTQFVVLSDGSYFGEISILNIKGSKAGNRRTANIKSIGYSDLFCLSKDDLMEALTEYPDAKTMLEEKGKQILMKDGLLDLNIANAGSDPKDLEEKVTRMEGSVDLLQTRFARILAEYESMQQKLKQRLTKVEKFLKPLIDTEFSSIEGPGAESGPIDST
Sequence (Q14028 456-1251): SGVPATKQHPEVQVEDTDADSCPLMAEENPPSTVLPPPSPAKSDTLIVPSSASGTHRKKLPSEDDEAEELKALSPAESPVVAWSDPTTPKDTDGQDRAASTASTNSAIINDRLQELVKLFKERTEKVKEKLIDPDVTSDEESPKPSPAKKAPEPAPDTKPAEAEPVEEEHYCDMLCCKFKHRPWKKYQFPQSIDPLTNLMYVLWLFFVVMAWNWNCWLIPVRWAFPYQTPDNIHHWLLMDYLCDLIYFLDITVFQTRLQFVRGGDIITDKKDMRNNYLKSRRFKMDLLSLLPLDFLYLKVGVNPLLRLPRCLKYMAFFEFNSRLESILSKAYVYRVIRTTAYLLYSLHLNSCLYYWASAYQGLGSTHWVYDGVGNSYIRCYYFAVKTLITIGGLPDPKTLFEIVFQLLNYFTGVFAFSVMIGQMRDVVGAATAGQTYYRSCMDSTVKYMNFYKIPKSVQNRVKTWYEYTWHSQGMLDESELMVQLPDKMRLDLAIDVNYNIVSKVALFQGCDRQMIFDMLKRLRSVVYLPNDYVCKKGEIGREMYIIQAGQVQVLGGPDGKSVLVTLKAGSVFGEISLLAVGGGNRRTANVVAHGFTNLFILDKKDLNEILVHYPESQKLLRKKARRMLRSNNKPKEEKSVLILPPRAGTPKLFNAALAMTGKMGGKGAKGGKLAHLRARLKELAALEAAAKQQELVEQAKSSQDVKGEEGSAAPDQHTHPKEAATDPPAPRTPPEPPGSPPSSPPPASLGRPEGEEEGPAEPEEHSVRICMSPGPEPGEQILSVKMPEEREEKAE
PROTOCOL_SUMMARY: cryo-EM structures
OBSERVABLE: pKi
Answers are plain numbers, as −log10 of the molar value.

If you can, please state the reported pKi value of COc1ccc([C@H]2Sc3ccccc3N(CCN(C)C)C(=O)[C@H]2OC(C)=O)cc1 [L-cis-Diltiazem] .
5.43
